Assay: Pharmacokinetic study in SD rats after intragastric administration of pro-EGCG, plasma by UPLC-Qtof-MS
Type: in vivo, Sprague Dawley (SD) rats
Conditions: female, Sprague-Dawley, rat, po; SD rats (n = 3), plasma, within 24 h after intragastric 50 mg/kg pro-EGCG; Mean ± SE
ATTRIBUTE_MEASURED: MRT

// query Consider the compound CC(=O)Oc1cc(OC(C)=O)c2c(c1)O[C@H](c1cc(OC(C)=O)c(OC(C)=O)c(OC(C)=O)c1)[C@H](OC(=O)c1cc(OC(C)=O)c(OC(C)=O)c(OC(C)=O)c1)C2 [pro-EGCG, (-)-Epigallocatechin-gallate octaacetate] and give its measured MRT.
// result 12.9 h
